Values from patent US20260098059A1

- Measured on: T1, β-catenin (UniProt P35222 134-665, limits assumed, biotinylated in the SPR and plate assays)
- T1 construct: also called beta catenin; biotinylated β-catenin
- T1 sequence (looked up): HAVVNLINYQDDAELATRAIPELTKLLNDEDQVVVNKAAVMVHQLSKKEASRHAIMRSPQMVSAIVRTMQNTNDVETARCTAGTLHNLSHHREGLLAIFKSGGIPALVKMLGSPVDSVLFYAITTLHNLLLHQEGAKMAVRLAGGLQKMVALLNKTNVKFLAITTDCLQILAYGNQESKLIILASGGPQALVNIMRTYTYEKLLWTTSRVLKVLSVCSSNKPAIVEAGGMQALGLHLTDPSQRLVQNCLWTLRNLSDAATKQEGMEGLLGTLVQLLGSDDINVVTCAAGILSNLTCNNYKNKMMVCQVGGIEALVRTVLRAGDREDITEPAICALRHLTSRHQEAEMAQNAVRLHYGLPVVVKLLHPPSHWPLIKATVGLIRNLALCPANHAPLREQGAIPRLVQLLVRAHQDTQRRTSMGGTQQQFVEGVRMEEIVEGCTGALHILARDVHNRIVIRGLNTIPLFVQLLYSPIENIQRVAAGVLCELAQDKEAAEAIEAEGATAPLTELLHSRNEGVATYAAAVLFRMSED
- Protocol details: SPR (Biacore); SPR (Biacore), direct binding
Provide the recorded Kd for the entries that follow.
Record the value in nM, omitting the unit from your answer.

Look up Kd: KMIRMWFLISFWG (cyclo-H2N-K(Aoc*)MIRM-NmeW-FLISFWG*) [SEQ ID NO: 21]
337

Look up Kd: H-MSRMWFLISFWMG-OH [SEQ ID NO: 14]
250

Look up Kd: MSRMWFLISFWAG (HELM PEPTIDE1{M.S.R.M.W.F.L.I.S.F.W.[meA].G}$$$$V2.0; SMILES CC[C@H](C)[C@H](NC(=O)[C@H](CC(C)C)NC(=O)[C@H](Cc1ccccc1)NC(=O)[C@H](Cc1c[nH]c2ccccc12)NC(=O)[C@H](CCSC)NC(=O)[C@H](CCCNC(=N)N)NC(=O)[C@H](CO)NC(=O)[C@@H](N)CCSC)C(=O)N[C@@H](CO)C(=O)N[C@@H](Cc1ccccc1)C(=O)N[C@@H](Cc1c[nH]c2ccccc12)C(=O)N(C)[C@@H](C)C(=O)NCC(=O)O) [SEQ ID NO: 16]
120
